experiment: recombinant barcode read abundance after kanamycin selection (control-corrected) (log10(CPM+1)); higher = more efficient recombination; sequences stand for … in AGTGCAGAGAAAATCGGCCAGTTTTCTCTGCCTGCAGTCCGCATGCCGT…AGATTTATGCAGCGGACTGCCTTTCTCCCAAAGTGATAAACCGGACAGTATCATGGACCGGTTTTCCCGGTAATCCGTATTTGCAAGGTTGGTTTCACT; site = the 11-nt target;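 also: IS621 recombinase and bridge RNA in Escherichia coli cells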
Would you please tag the item yes when its recombinant barcode read abundance (log10) is 0.3 or above, and no when it is below?

Please indicate if the recorded recombinant barcode read abundance (log10) for CCTTCTACTTGGGTTCTAACCTGTTGCTA (site CCTTCTACTTA) meets or exceeds 0.3.
yes

Please indicate if the recorded recombinant barcode read abundance (log10) for TTGCCTACTTGGGTTCTAACCTGTTGCCT (site TTGCCTACTAG) meets or exceeds 0.3.
yes

###

test: recombinant barcode read abundance after kanamycin selection (control-corrected) (log10(CPM+1)); higher = more efficient recombination; sequences stand for … in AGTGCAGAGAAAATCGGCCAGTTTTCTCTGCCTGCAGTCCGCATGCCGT…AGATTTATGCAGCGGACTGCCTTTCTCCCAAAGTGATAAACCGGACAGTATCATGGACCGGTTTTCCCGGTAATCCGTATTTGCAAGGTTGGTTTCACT; site = the 11-nt target
Would you please tag the item 1 when its recombinant barcode read abundance (log10) is 0.9 or above, and 0 when it is below?

Solved cases (5 shown):
[
  {
    "entry_sequence": "GATCCTACTTGGGTTCTAACCTGTTGCCT (site GCTCCTACTAG)",
    "category": 0
  },
  {
    "entry_sequence": "TTCAAAGCTTGGGTTCTAACCTGTTGCCT (site TTCAAACCTAG)",
    "category": 0
  },
  {
    "entry_sequence": "ACTGGTCCTTGGGTTCTAACCTGTTGCGG (site ACTGGTCCTCC)",
    "category": 1
  },
  {
    "entry_sequence": "TCGGGATCTTGGGTTCTAACCTGTTGCCT (site GCGGGATCTAG)",
    "category": 0
  },
  {
    "entry_sequence": "CATAACTCTTGGGTTCTAACCTGTTGCCT (site CATAACTCTAG)",
    "category": 1
  }
]

Please indicate if the recorded recombinant barcode read abundance (log10) for AGAACTACTTGGGTTCTAACCTGTTGCCT (site AGAACTACTAG) meets or exceeds 0.9.
0

Please indicate if the recorded recombinant barcode read abundance (log10) for TAAATCCCTTGGGTTCTAACCTGTTGCGA (site TAAATCCCTTC) meets or exceeds 0.9.
1

Please indicate if the recorded recombinant barcode read abundance (log10) for TAGGAAGCTTGGGTTCTAACCTGTTGCGA (site TAGGAAGCTTC) meets or exceeds 0.9.
1

Please indicate if the recorded recombinant barcode read abundance (log10) for TGGGTCCCTTGGGTTCTAACCTGTTGCCT (site TGGGTCCCTAG) meets or exceeds 0.9.
1

###

assay: recombinant barcode read abundance after kanamycin selection (control-corrected) (log10(CPM+1)); higher = more efficient recombination; sequences stand for … in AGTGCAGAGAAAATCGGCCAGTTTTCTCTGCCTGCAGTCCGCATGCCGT…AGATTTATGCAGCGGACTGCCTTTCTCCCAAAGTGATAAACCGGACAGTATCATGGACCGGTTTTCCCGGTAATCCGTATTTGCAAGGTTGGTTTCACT; site = the 11-nt target
recombinant barcode read abundance (log10) by entry:
Simply state the number, no unit and no words.

[
  {
    "entry_sequence": "TAGCTCACTTGGGTTCTAACCTGTTGCGG (site TAGCTCACTCC)",
    "endpoint_value": 1.3
  },
  {
    "entry_sequence": "ACACGACCTTGGGTTCTAACCTGTTGCGG (site ACAGGAGCTCC)",
    "endpoint_value": 0
  },
  {
    "entry_sequence": "GTTCCTGCTTGGGTTCTAACCTGTTGCCT (site GTTCCTGCTAG)",
    "endpoint_value": 0.86
  }
]

Record CTCTCTCCTTGGGTTCTAACCTGTTGCCT (site CTCTCTCCTAG) , field recombinant barcode read abundance (log10): 0.261

Record TAGCTCCCTTGGGTTCTAACCTGTTGCCT (site TAGCTCCCTCG) , field recombinant barcode read abundance (log10): 0.0637

Record TTCGCATCTTGGGTTCTAACCTGTTGCTT (site CCAAGGCCTCG) , field recombinant barcode read abundance (log10): 0.209

Record GACTGGCCTTGGGTTCTAACCTGTTGCAG (site ATGGACACTAC) , field recombinant barcode read abundance (log10): 0.0143

Record TCAGGTACTTGGGTTCTAACCTGTTGCCT (site GCAGGTACTAG) , field recombinant barcode read abundance (log10): 0.0652

Record CGTACGACTTGGGTTCTAACCTGTTGCAT (site CGTTCGACTAT) , field recombinant barcode read abundance (log10): 0.0932

Record AGCCCTCCTTGGGTTCTAACCTGTTGCTC (site AGCCCTCCTCA) , field recombinant barcode read abundance (log10): 0.26

Record TAGACTACTTGGGTTCTAACCTGTTGCTA (site TAGACTACTCA) , field recombinant barcode read abundance (log10): 0.111

Record GCTGTATCTTGGGTTCTAACCTGTTGCCT (site GCTGTATCTAG) , field recombinant barcode read abundance (log10): 0.612

Record AATTGGACTTGGGTTCTAACCTGTTGCTT (site AATTGGACTAA) , field recombinant barcode read abundance (log10): 0.355

Record TACGCTCCTTGGGTTCTAACCTGTTGCAT (site TACGCTCCTAG) , field recombinant barcode read abundance (log10): 0.284

Record GTATCAACTTGGGTTCTAACCTGTTGCCT (site GTATCAGCTAG) , field recombinant barcode read abundance (log10): 0.0211

Record GGGGCACCTTGGGTTCTAACCTGTTGCTT (site GGGGCACCTAG) , field recombinant barcode read abundance (log10): 1.48

Record AGAGGACCTTGGGTTCTAACCTGTTGCCT (site AGAGGACCTAG) , field recombinant barcode read abundance (log10): 2.32

Record GGCTGCCCTTGGGTTCTAACCTGTTGCCT (site GGCTGCCCTAG) , field recombinant barcode read abundance (log10): 0.258

Record AGTCGGTCTTGGGTTCTAACCTGTTGCAT (site AGTCGGTCTAT) , field recombinant barcode read abundance (log10): 0.813

Record CGCGATCCTTGGGTTCTAACCTGTTGCGT (site CGCGATCCTAC) , field recombinant barcode read abundance (log10): 0.834

Record GGACTATCTTGGGTTCTAACCTGTTGCCT (site GGACAATCTAG) , field recombinant barcode read abundance (log10): 0.104
